# credit: patent EP2974737A1

# SUBJECT_OF_TEST: T1, purified interference factor(s) from Donor A (human)
# T1 construct: also called interference in serum from Donor A
# MEASUREMENT_DESCRIPTION: SPR, interference factor immobilized; % of Fig. 9 reference
interference binding, % of Reference Sequence values by entry
Numeric only. Scale: %

{"BINDER": "SEQ ID NO: 81 (VHH) VHH: EVQLVESGGGVVQPGGSLRLSCAASRSIGRLDRMGWYRHRPGEPRELVATITGGSSINYGDSVKGRFTISIDNSKNTVYLQMNSLRPEDTAVYYCNFNKYVTSRDTWGQGTLVTVSS", "TEST_VALUE": 94}

Now examine the next entry.
Q. Look up interference binding, % of Reference Sequence for this binder: SEQ ID NO: 43 (VHH) DVQLVESGGGLVQPGGSLRLSCAASGFILDYYAIGWFRQAPGKEREGVLCIDASDDITYYADSVKGRFTISRDNSKNTVYLQMNSLRPEDTAVYYCATPIGLSSSCLLEYDYDYWGQGTLVTVSSGGGGSGGGSEVQLLESGGGLVQPGGSLRLSCAASGFTFRSFGMSWVRQAPGKGPEWVSSISGSGSDTLYADSVKGRFTISRDNSKNTLYLQMNSLRPEDTAVYYCTIGGSLSRSSQGTLVTVSSA
A. 3
